Experiment: Phase 1 single-dose study, plasma PK of solriamfetol by level of renal function
Type: in vivo, human
Conditions: both sexes, human, plasma, oral, 75 mg, Group 4 severe renal impairment; single 75-mg dose; read-out: AUC∞, mean ± SD (%CV)
Procedure: In healthy subjects with normal renal function, solriamfetol HCl is renally excreted ~90% unchanged within 48 hours of administration. […] Eligible participants were assigned to 1 of 5 groups according to renal disease status as measured by the estimated glomerular filtration rate (eGFR) on the day prior to dosing, calculated using the Modification in Diet in Renal Disease equation. […]
measurement.name: AUC(0-inf)

# compound, measurement.name, test.result
records = [
    ("NC(=O)OC[C@H](N)Cc1ccccc1 [solriamfetol, [R]-2-amino-3-phenylpropylcarbamate]", "AUC(0-inf)", "23600 ng·h/mL"),
]

---

Assay: Phase 1 single-dose study, plasma PK of solriamfetol by level of renal function
Assay type: in vivo, human
Conditions: both sexes, human, plasma, oral, 75 mg, Group 3 moderate renal impairment; single 75-mg dose; read-out: t½, mean ± SD (%CV) (converted)
Experimental: In healthy subjects with normal renal function, solriamfetol HCl is renally excreted ~90% unchanged within 48 hours of administration. […] Eligible participants were assigned to 1 of 5 groups according to renal disease status as measured by the estimated glomerular filtration rate (eGFR) on the day prior to dosing, calculated using the Modification in Diet in Renal Disease equation. […]

# compound, half-life
rows = [
    ("NC(=O)OC[C@H](N)Cc1ccccc1 [solriamfetol, [R]-2-amino-3-phenylpropylcarbamate]", "14.3 h"),
]

---

experiment: Phase 1 single-dose study, plasma PK of solriamfetol by level of renal function; format: in vivo, human; conditions: both sexes, human, plasma, oral, 75 mg, Group 2 mild renal impairment; single 75-mg dose; read-out: AUC∞, mean ± SD (%CV)

# compound, AUC(0-inf)
rows = [
    ("NC(=O)OC[C@H](N)Cc1ccccc1 [solriamfetol, [R]-2-amino-3-phenylpropylcarbamate]", "6840 ng·h/mL"),
]

---

experiment: Phase 1 single-dose study, plasma PK of solriamfetol by level of renal function; assay type: in vivo, human; details: both sexes, human, plasma, oral, 75 mg, Group 2 mild renal impairment; single 75-mg dose; read-out: AUC∞, geometric LS mean
measurement.name: AUC(0-inf) (ng·h/mL)

# molecule, test.result
records = [
    ("NC(=O)OC[C@H](N)Cc1ccccc1 [solriamfetol, [R]-2-amino-3-phenylpropylcarbamate]", 6670),
]

The measured values listed here are drawn from patent US20230293475A1.
